result.type: melting point

In: What measured melting point goes with CC(C)c1ccc(SCC(=O)O)cc1 ?
Out: 66 to 68 °C

In: Record request: melting point value, item Nc1cccnn1
Out: 169 to 171 °C

In: Which measured melting point value corresponds to NC(Cc1cccnc1)=NO ?
Out: 149 to 151 °C

In: GET /values?readout=melting point&item= O=C(CCl)NCCC(c1ccccc1)c1ccccc1
Out: 104 to 107 °C

In: # melting point lookup, item Cc1ccc(C#N)c(N2CCOCC2)c1
Out: 86 to 88 °C

In: So what's the measured melting point for this one? O=C(O)CN1Cc2ccccc2C1=O
Out: 217 to 219 °C

----------
This section presents compounds with their documented melting point values.

Example compounds with recorded melting point:
1) CS(=O)(=O)C(Cc1ccccc1)C(=O)O (configuration not stated); 116 to 118 °C
2) Cc1nn(-c2ccc(F)cc2)cc1C=O; 91 to 93 °C
3) O=C(O)c1cc(C2CC2)nc2c1cnn2C1CCCCC1; 210 to 212 °C
4) O=Cc1cccc(Cl)c1O; 52 to 54 °C

In: For O=C(CCl)c1ccc(C2CCCCC2)cc1 , what is its reported melting point?
Out: 182 to 187 °C

In: Form field: reported melting point of COc1ccc2sc(C(=O)O)c(C)c2c1
Out: 254 to 256 °C

In: Any idea what melting point was measured for Cn1cc(C(=O)NN)c2ccccc21 ?
Out: 138 to 140 °C

In: I'd like to know its melting point. The compound in question is CCNc1ccc(Br)cn1
Out: 67 to 69 °C

----------
result.type: melting point

1) Clc1ncnc2[nH]ccc12; 195 to 197 °C

In: Form field: reported melting point of Cc1ccc2[nH]cc(C(=O)O)c2c1
Out: 183 to 185 °C

In: Item under review: CNS(=O)(=O)c1cc(C(=O)O)ccc1Cl . Reported melting point?
Out: 226 to 228 °C

In: Fill in the blank: the reported melting point of Nc1ccc(C(O)c2ccccc2)cc1[N+](=O)[O-] (configuration not stated) is ____.
Out: 120 to 122 °C

----------
result.type: melting point

Sample answers from the record:
1) N#Cc1cnn(-c2nccs2)c1N; 165 to 167 °C
2) COc1ccccc1-n1cc(-c2ccc(Cl)cc2Cl)nc1S; 244 to 246 °C

--- query ---
In: Form field: reported melting point of O=C(O)c1ccc(CN(Cc2ccccc2)S(=O)(=O)c2ccc(Cl)cc2)cc1
Out: 203 to 205 °C

----------
# melting point listing for each entry below

In: Entry under review: NNc1c(F)cc(C(=O)NC2CC2)cc1F . Reported melting point?
Out: 204 to 206 °C

In: What does the data say about its melting point? Entry: O=C(O)CSCc1nc2scc(-c3cccs3)c2c(=O)[nH]1
Out: 148 to 150 °C

In: Find the recorded melting point belonging to O=C(O)Cn1ncc2ccccc21 and report it.
Out: 188 to 190 °C

----------
result.type: melting point

Worked cases, melting point given:
1. Cc1ccc(Nc2ncccc2N)cc1; 144 to 146 °C
2. CC1=CC(C)=NS(=O)(=O)N1; 119 to 121 °C
3. CCCNC(=O)c1cccc(O)c1; 68 to 70 °C

In: Give the measured melting point of CC(N)c1ccc(NC(=O)NC2CC2)cc1 (stereo unspecified) .
Out: 142 to 144 °C

In: Returns the measured melting point for the input compound. Input: NCC(O)c1cc2ccccc2s1 (stereo unspecified)
Out: 128 to 130 °C

In: Reported melting point for CC1(c2ccc(C(F)(F)F)cc2)NC(=O)NC1=O (stereo unspecified) : what is it?
Out: 169 to 171 °C
